Where do these numbers come from? They come from paper PMC4376724.

System: PBMC from HLA-A*02:01 Chagas disease patients and healthy donors
Test: Cytokine secretion test (Bio-Plex multiplex immunoassay) in PBMC supernatants
Format: cell-based, human
Run parameters: PBMC of patient CCC I 861; 1 μM peptide, 30 h; non-peptide control subtracted
Readout type: TNFα

Worked examples, 3 sequences total:
INSERT INTO measurements (sequence_data, observed_result) VALUES
  ('TVFDASRSTV [TcCA-2_442-451]', '-3 pg/mL'),
  ('ALRNLRVFL [TcCA-2_607-615]', '-3 pg/mL'),
  ('ALQVTNHRYL [TcCA-2_657-666]', '-2 pg/mL');

Quick one: TNFα for AAAGDKLSL [TcCA-2_273-281] ?
-2 pg/mL
